target: T1, human serum albumin (human, UniProt P02768 25-609); experiment: SPR (Biacore 8K), albumin immobilised, 25 C, 1:1 kinetics
T1 construct: bought protein, amine-coupled to a CM5 chip; also called Human SA; HSA
ASSAY ENDPOINT: kon (M⁻¹ s⁻¹)
The reply should be a number in M⁻¹ s⁻¹, with the unit left off.

Dear colleague, I am looking for the recorded kon of the following binder: INS Analog 23 (other, single-chain insulin B-L2-A-L1-VHH fusion; also called Ex. 23) FVSQHLCGSHLVEALHLVCGERGFHYTPKTGGGGGGGIVEQCCHSICSLEQLENYCGGGGGQGGGGQGGGGQGGGGQGGGGQEVQLLESGGGLVQPGGSLRLSCAASGRYIDETAVAWFRQAPGKEREFVAGIGGGVDITYYADSVKGRFTISRDNSKNTLYLQMNSLRPEDTAVYYCAARPGRPLITSKVADLYPYWGQGTLVTVSSPP
120000
